System: Human lung adenocarcinoma cell A549
Assay: In-vitro inhibition of tumor cell proliferation (3H-TdR, 72 h), normal oxygen and hypoxic
Assay type: cell-based
Settings: A549, 72 h, normal oxygen (air), read-out: Median inhibition concentration IC50 normal oxygen (air)
attributeMeasured: IC50

INSERT INTO results (compound, testedtarget, measured) VALUES
  ('CC(OP(=O)(N[C@@H](C)C(=O)OCC(C)(C)C)OC[C@H]1O[C@@H](n2cnc(N)nc2=O)C(F)(F)C1O)c1ccc([N+](=O)[O-])cc1 (stereo partly drawn)', 'Human lung adenocarcinoma cell A549', '2 µg/mL'),
  ('C[C@H](NP(=O)(OC[C@H]1O[C@@H](n2ccc(N)nc2=O)C(F)(F)[C@@H]1O)Oc1ccccc1)C(=O)OCc1ccccc1 (stereo partly drawn) [NUC-1031, reference compound]', 'Human lung adenocarcinoma cell A549', '0.01 µg/mL'),
  ('CC(C)OC(=O)[C@H](C)NP(=O)(OC[C@H]1O[C@@H](n2cnc(N)nc2=O)C(F)(F)C1O)OC(C)c1ccc([N+](=O)[O-])cc1 (stereo partly drawn)', 'Human lung adenocarcinoma cell A549', '2 µg/mL');

---

System: Human liver cancer HepG2 cell
Test: In-vitro inhibition of tumor cell proliferation (3H-TdR, 72 h), normal oxygen and hypoxic
Assay type: cell-based
Conditions: HepG2, 72 h, hypoxic (5% CO2, 95% N2), read-out: Median inhibition concentration IC50 hypoxic (nitrogen)
attributeMeasured: IC50 (µg/mL)

INSERT INTO measurements (molecule, measured) VALUES
  ('Nc1ccn([C@@H]2O[C@H](CO)[C@@H](O)C2(F)F)c(=O)n1 [Gemcitabine]', 0.2),
  ('CC(OC(=O)[C@H](C)NP(=O)(OC[C@H]1O[C@@H](n2ccc(N)nc2=O)C(F)(F)C1O)Oc1ccccc1)c1ccc([N+](=O)[O-])cc1 (stereo partly shown) [Compound 001]', 0.3),
  ('C[C@H](NP(=O)(OC[C@H]1O[C@@H](n2ccc(N)nc2=O)C(F)(F)C1O)Oc1ccccc1)C(=O)OCc1ccc([N+](=O)[O-])cc1 (stereo partly shown) [Compound 023]', 0.3),
  ('CC(OC(=O)[C@H](C)NP(=O)(OC[C@H]1O[C@@H](n2ccc(N)nc2=O)C(F)(F)C1O)Oc1ccccc1)c1cnc([N+](=O)[O-])n1C (stereo partly shown) [Compound 003]', 0.4),
  ('COC(=O)[C@H](C)NP(=O)(OC[C@H]1O[C@@H](n2cnc(N)nc2=O)C(F)(F)C1O)OC(C)c1ccc([N+](=O)[O-])cc1 (stereo partly shown) [Compound 007]', 0.5),
  ('CCOC(=O)[C@H](C)NP(=O)(OC[C@H]1O[C@@H](n2cnc(N)nc2=O)C(F)(F)C1O)OC(C)c1ccc([N+](=O)[O-])cc1 (stereo partly shown) [Compound 008]', 0.3),
  ('C[C@H](NP(=O)(OC[C@H]1O[C@@H](n2ccc(N)nc2=O)C(F)(F)C1O)Oc1ccccc1)C(=O)OC(C)(C)c1ccc([N+](=O)[O-])cc1 (stereo partly shown) [Compound 002]', 0.2);

---

Reported IC50 values for a set of compounds
Test system: Human lung adenocarcinoma cell A549
Experiment: In-vitro inhibition of tumor cell proliferation (3H-TdR, 72 h), normal oxygen and hypoxic
Type: cell-based
Conditions: A549, 72 h, normal oxygen (air), read-out: Median inhibition concentration IC50 normal oxygen (air)
attributeMeasured: IC50 (µg/mL)

INSERT INTO measurements (compound, measured) VALUES
  ('CC(OC(=O)[C@H](C)NP(=O)(OC[C@H]1O[C@@H](n2ccc(N)nc2=O)C(F)(F)C1O)Oc1ccccc1)c1ccc([N+](=O)[O-])s1 (some centres unmarked)', 2),
  ('CC(OC(=O)Nc1ccn([C@@H]2O[C@H](COP(=O)(N[C@@H](C)C(=O)OCc3ccccc3)Oc3ccccc3)C(O)C2(F)F)c(=O)n1)c1ccc([N+](=O)[O-])cc1 (some centres unmarked)', 0.01),
  ('C[C@H](NP(=O)(OC[C@H]1O[C@@H](n2ccc(N)nc2=O)C(F)(F)C1O)Oc1ccccc1)C(=O)OCc1ccc([N+](=O)[O-])cc1 (some centres unmarked)', 0.01),
  ('CCCCOC(=O)[C@H](C)NP(=O)(OC[C@H]1O[C@@H](n2cnc(N)nc2=O)C(F)(F)C1O)OC(C)c1ccc([N+](=O)[O-])cc1 (some centres unmarked)', 2),
  ('C[C@H](NP(=O)(OC[C@H]1O[C@@H](n2ccc(N)nc2=O)C(F)(F)C1O)Oc1ccccc1)C(=O)OC(C)(C)c1ccc([N+](=O)[O-])cc1 (some centres unmarked)', 2),
  ('CC(OP(=O)(N[C@@H](C)C(=O)OCc1ccccc1)OC[C@H]1O[C@@H](n2ccc(N)nc2=O)C(F)(F)C1O)c1ccc([N+](=O)[O-])cc1 (some centres unmarked)', 2),
  ('CC(OC(=O)[C@H](C)NP(=O)(OC[C@H]1O[C@@H](n2ccc(N)nc2=O)C(F)(F)C1O)Oc1ccccc1)c1ccc([N+](=O)[O-])cc1 (some centres unmarked)', 1),
  ('Nc1ccn([C@@H]2O[C@H](CO)[C@@H](O)C2(F)F)c(=O)n1', 0.01);

---

Tested on: Human pancreatic adenocarcinoma cell BxPC-3 cell
Experiment: In-vitro inhibition of tumor cell proliferation (3H-TdR, 72 h), normal oxygen and hypoxic
Type: cell-based
Details: Homo sapiens; BxPC-3, 72 h, hypoxic (5% CO2, 95% N2); read-out: Median inhibition concentration IC50 hypoxic (nitrogen)
Reported IC50 values for a set of compounds
attributeMeasured: IC50 (µg/mL)

INSERT INTO measurements (compound, measured) VALUES
  ('CC(OC(=O)[C@H](C)NP(=O)(OC[C@H]1O[C@@H](n2cnc(N)nc2=O)C(F)(F)C1O)Oc1ccccc1)c1ccc([N+](=O)[O-])o1 (stereo partly drawn) [Compound 004]', 0.4),
  ('C[C@H](NP(=O)(OC[C@H]1O[C@@H](n2ccc(N)nc2=O)C(F)(F)C1O)Oc1ccccc1)C(=O)OCc1ccc([N+](=O)[O-])cc1 (stereo partly drawn) [Compound 023]', 0.1),
  ('CC(OC(=O)[C@H](C)NP(=O)(OC[C@H]1O[C@@H](n2ccc(N)nc2=O)C(F)(F)C1O)Oc1ccccc1)c1ccc([N+](=O)[O-])cc1 (stereo partly drawn) [Compound 001]', 0.2),
  ('C[C@H](NP(=O)(OC[C@H]1O[C@@H](n2ccc(N)nc2=O)C(F)(F)[C@@H]1O)Oc1ccccc1)C(=O)OCc1ccccc1 (stereo partly drawn) [NUC-1031, reference compound]', 0.1),
  ('Nc1ccn([C@@H]2O[C@H](CO)[C@@H](O)C2(F)F)c(=O)n1 [Gemcitabine]', 0.2),
  ('C[C@H](NP(=O)(OC[C@H]1O[C@@H](n2ccc(N)nc2=O)C(F)(F)C1O)Oc1ccccc1)C(=O)OC(C)(C)c1ccc([N+](=O)[O-])cc1 (stereo partly drawn) [Compound 002]', 0.4);

---

Reported IC50 values for a set of compounds
Tested on: Human liver cancer HepG2 cell
Assay: In-vitro inhibition of tumor cell proliferation (3H-TdR, 72 h), normal oxygen and hypoxic
Type: cell-based
Settings: HepG2, 72 h, hypoxic (5% CO2, 95% N2), read-out: Median inhibition concentration IC50 hypoxic (nitrogen)
attributeMeasured: IC50 (µg/mL)

INSERT INTO assay_data (compound, attributemeasured, unittag, measured) VALUES
  ('CC(OC(=O)Nc1ccn([C@@H]2O[C@H](COP(=O)(N[C@@H](C)C(=O)OCc3ccccc3)Oc3ccccc3)C(O)C2(F)F)c(=O)n1)c1ccc([N+](=O)[O-])cc1 (stereo partly drawn) [Compound 022]', 'IC50', 'µg/mL', 0.3),
  ('C[C@H](NP(=O)(OC[C@H]1O[C@@H](n2ccc(N)nc2=O)C(F)(F)[C@@H]1O)Oc1ccccc1)C(=O)OCc1ccccc1 (stereo partly drawn) [NUC-1031, reference compound]', 'IC50', 'µg/mL', 0.2),
  ('CC(OP(=O)(N[C@@H](C)C(=O)OC1CCCCC1)OC[C@H]1O[C@@H](n2cnc(N)nc2=O)C(F)(F)C1O)c1ccc([N+](=O)[O-])cc1 (stereo partly drawn) [Compound 012]', 'IC50', 'µg/mL', 0.5);
